Test Description: Effective concentration for retinoic acid receptor alpha induced lipogenesis in C3H10T1/2 clone 8 fibroblast cells
Task for the reader: assign each of the following compounds its reported EC50.

Returns the measured EC50 for the input compound. Input: Cc1oc(/C=C/C(=O)O)cc1Cc1ccc2c(c1)C(C)(C)CCC2(C)C
> 1 µM

Returns the measured EC50 for the input compound. Input: CN1Cc2oc(/C=C/C(=O)O)cc2C(c2ccc3c(c2)C(C)(C)CCC3(C)C)C1 (centres undefined)
> 10 µM

Returns the measured EC50 for the input compound. Input: CC1(C)CCC(C)(C)c2cc(Cc3coc(/C=C/C(=O)O)c3)ccc21
0.057 µM

Returns the measured EC50 for the input compound. Input: CC1(C)CCC(C)(C)c2cc(C3CCCc4oc(/C=C/C(=O)O)nc43)ccc21 (centres undefined)
> 10 µM
